system_name: Human Calpain 2/NS1 (Homo sapiens, UniProt P17655)
Sequence (P17655 1-700): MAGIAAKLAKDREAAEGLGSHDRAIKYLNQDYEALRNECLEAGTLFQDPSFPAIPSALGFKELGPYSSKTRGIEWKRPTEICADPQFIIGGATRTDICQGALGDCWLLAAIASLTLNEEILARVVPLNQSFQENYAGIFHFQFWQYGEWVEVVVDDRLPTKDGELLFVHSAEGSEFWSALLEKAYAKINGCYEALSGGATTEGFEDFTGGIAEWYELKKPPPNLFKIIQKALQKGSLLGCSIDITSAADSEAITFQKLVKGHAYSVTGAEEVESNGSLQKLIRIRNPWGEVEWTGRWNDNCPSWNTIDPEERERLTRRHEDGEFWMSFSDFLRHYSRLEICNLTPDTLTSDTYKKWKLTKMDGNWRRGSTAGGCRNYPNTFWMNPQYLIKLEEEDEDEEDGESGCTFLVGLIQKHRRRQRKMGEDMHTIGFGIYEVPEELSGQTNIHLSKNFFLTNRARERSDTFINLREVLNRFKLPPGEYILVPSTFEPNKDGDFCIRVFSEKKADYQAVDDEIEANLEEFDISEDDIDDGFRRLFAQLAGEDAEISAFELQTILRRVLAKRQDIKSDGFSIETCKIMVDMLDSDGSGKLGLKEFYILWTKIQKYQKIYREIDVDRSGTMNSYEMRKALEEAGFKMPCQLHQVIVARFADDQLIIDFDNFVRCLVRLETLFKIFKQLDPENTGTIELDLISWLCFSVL
Sequence (P04632 1-268 partner): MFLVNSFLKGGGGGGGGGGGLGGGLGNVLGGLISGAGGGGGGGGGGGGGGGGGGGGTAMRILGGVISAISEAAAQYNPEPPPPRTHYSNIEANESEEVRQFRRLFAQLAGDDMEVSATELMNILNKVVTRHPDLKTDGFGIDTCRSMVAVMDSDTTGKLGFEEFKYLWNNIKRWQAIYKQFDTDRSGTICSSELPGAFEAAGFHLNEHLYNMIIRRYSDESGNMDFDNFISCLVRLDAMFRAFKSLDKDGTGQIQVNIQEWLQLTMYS
protocol: Calpain inhibition continuous fluorescence (FRET) assay, Human Calpain 2/NS1
Assay type: biochemical
recorded_conditions: Column B; read-out: Human Calpain 2/NS1 IC50
readout: IC50

{"columns": ["smiles_code", "IC50"],
 "data": [
  ["Cc1nc(-c2ccccn2)c(C(=O)N[C@@H](Cc2ccccc2)C(=O)C(N)=O)o1", "< 3 µM"],
  ["CC[C@@H](C)[C@H](NC(=O)c1c(C)noc1-c1ccccc1)C(=O)C(N)=O", "< 3 µM"]
]}

// query Sample Cc1cc(C(=O)N[C@@H](Cc2ccccc2)C(=O)C(N)=O)n(-c2ccc(CNC(=O)OCc3ccccc3)cc2)n1 — what was its IC50?
// result < 3 µM

// query Could you tell me which IC50 is on file for Cc1noc(-c2ccccc2)c1C(=O)N[C@@H](Cc1ccccc1)C(=O)C(=O)NCc1ccc(S(C)(=O)=O)cc1 ?
// result < 3 µM
